# experiment: small-molecule microarray binders of probe aNog, primary screen, biochemical, biotinylated probe, 635/667 nm fluorescence (AID 1115);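 note: probe is biotinylated aNog protein used at 0.15 µg/mL for 1 h at 4 C; z-score combines 667 nm fluorescence of each spot with its signal to noise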
# setup_conditions: higher = more signal
endpoint_name: composite z-score
The answer should be a number; do not append a unit.

Here are 3 molecules together with their reported answers.
molecule: COc1cc(CO)cc(I)c1O[C@H]1C=C(C(=O)NCCO)C[C@@H](NCc2ccc(F)cc2)[C@@H]1O
composite z-score: -0.506
//
molecule: COc1ccccc1CN1C(=O)c2ccccc2[C@@]2(Cc3ccccc3N(CC(F)(F)F)C2=O)[C@@H]1c1ccc(CO)cc1
composite z-score: 1.68
//
molecule: COC(=O)c1c(CC[C@@H](CO)NC(=O)N2CCC[C@H]2Cn2cc(Cc3ccccc3)nn2)oc(C(C)=O)c1C(=O)OC
composite z-score: 0.113

Query: composite z-score for CN(C)C(=O)[C@]1(CCS(=O)(=O)c2ccccc2)N=C(c2ccc(OCCCO)cc2)O[C@@H]1c1ccccc1N=[N+]=[N-] ?
Result: 1.9

Query: Subsequent entry: C=C[C@@H](COC(C)=O)N(C(=O)OC(C)(C)C)S(=O)(=O)c1ccc(Br)cc1
Result: -0.0317

Query: Subsequent entry: CCCCCCCCCCC(O)C1C=CC2C(=O)N(C)C(=O)C2N1Nc1ccc([N+](=O)[O-])cc1[N+](=O)[O-] (stereo not drawn)
Result: 0.441

Query: Subsequent entry: CC(C)C(=C=CC[C@H](O)c1cccc(OCCO)c1)C[C@H](O)c1cc(Cl)cc(Cl)c1O
Result: 0.0083

Query: Subsequent entry: COc1ccc(-c2cc3c(c(CCc4ccccc4)n2)[Si](C(C)C)(C(C)C)OC3)cn1
Result: -0.115

###

# experiment: cell viability in Huh7 cells, primary screen, cytotoxicity control for HCV replication inhibitor project, CellTiter-Glo luminescence, basal, 48 h (AID 1143);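 note: Huh7 hepatoma cells carrying a hepatitis C replication reporter with no stimulus; test concentration not given here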
# setup_conditions: Huh7 HCV replicon, higher = more signal, called active from +8 up or from −8 down
Decision: z-score >= -1 yields label 1, all other cases yield label 0.

Solved entries:
molecule: COc1cc(OC)c(C(O)C2C=CC3C(=O)N(C)C(=O)C3N2NC(=O)OC(C)(C)C)cc1Br (stereo not given)
assigned_category: label 1
//
molecule: COc1ccccc1CN1C(=O)c2ccccc2[C@](Cc2ccccc2I)(C(=O)NCC(F)(F)F)[C@@H]1c1ccc(CO)cc1
assigned_category: label 0
//
molecule: NC(=O)NCC#Cc1ccc2c(c1)[C@]1(C(=O)N2)[C@H](C(=O)NC[C@H](O)c2ccccc2)[C@H]2C(=O)O[C@H](c3ccccc3)[C@H](c3ccccc3)N2[C@@H]1c1ccc(OCCO)cc1
assigned_category: label 1

Query: Kindly determine if z-score recorded for COCCOC(=O)N1C(=O)[C@@]2(c3cc(C#CCC(C(=O)OC)C(=O)OC)ccc31)[C@H](C(=O)N1CCc3cc(OC)c(OC)cc3C1)[C@H]1C(=O)O[C@H](c3ccccc3)[C@H](c3ccccc3)N1[C@@H]2c1ccc(OCCO)cc1 is above or exactly -1.
Result: label 1

Query: Subsequent entry: COc1ccc([Si](C)(C)[C@H]2[C@H](CC(=O)N(CCO)Cc3ccccc3)O[C@@]3(C(=O)N(Cc4cccc(N5CCOC5=O)c4)c4ccccc43)[C@@H]2C)cc1
Result: label 0

Query: Subsequent entry: C#CCN([C@@H](Cc1ccc(O)cc1)C(=O)OC)[C@@H](/C=C/C1CC1)[C@H](O)Cc1ccccc1
Result: label 0

Query: Subsequent entry: CCCCN1CC=CC23O[C@@H]4/C=C\CCC(C)OC(=O)C4[C@H]2C(=O)N(C(CO)C(C)C)[C@@H]3C1=O (stereo not given in full)
Result: label 1

Query: Subsequent entry: COc1ccc(-c2cc3c(c(CCc4ccccc4)n2)[Si](C(C)C)(C(C)C)OC3)cn1
Result: label 1
